Each entry below carries its reported melting point.
Reported Endpoint: melting point

INSERT INTO assay_data (molecule, result) VALUES
  ('COc1cc2c(C(N)=O)c(C)oc2cc1C(C)=O', '223 to 224 °C'),
  ('COc1cc2c(C)c(C(N)=O)oc2c(C(C)=O)c1OC', '203 to 205 °C'),
  ('CC(=O)c1cc2oc(C)c(C(=O)O)c2c(Br)c1O', '196 to 197 °C'),
  ('COC(=O)c1oc2c(C(C)=O)c(OC)c(OC)cc2c1C', '98 to 100 °C'),
  ('COC(=O)c1c(C)oc2cc(C(O)C(Br)Br)c(OC)cc12 (centres unmarked)', '170 to 172 °C'),
  ('COc1cc2c(C(=O)O)c(C)oc2cc1C(C)=O', '249 to 250 °C'),
  ('COc1cc2c(C)c(Br)oc2c(C(C)=O)c1OC', '94 to 95 °C'),
  ('COc1cc2c(C)c(C(=O)O)oc2c(C(C)=O)c1OC', '212 to 214 °C');
